- experimental parameters: 298.15 K; 101.33 kPa; Liquid; Vibrating tube method
For each record, write down the corresponding mass density.
Give bare numbers, in kg/m3.

Study these solved cases before continuing.
[
  {
    "structure smiles string": "CC(C)OC(C)C",
    "mass density, kg/m3": 718.24
  },
  {
    "structure smiles string": "CC(C)CC(C)(C)C",
    "mass density, kg/m3": 687.62
  },
  {
    "structure smiles string": "CO",
    "mass density, kg/m3": 786.56
  },
  {
    "structure smiles string": "COC(C)(C)C",
    "mass density, kg/m3": 735.21
  },
  {
    "structure smiles string": "CCO",
    "mass density, kg/m3": 785.31
  }
]

# ---- query molecule ----
// mass density value for `CCCO` : 799.7
